system: TRPC4 (mouse), co-expressed with 5HT1a in HEK293; assay: enhancement of serotonin-evoked TRPC4 response – cell-based, second counter screen, HEK293 TRPC4/5HT1a, Fluo-4, counter-screen for TRPC4 potentiator project, confirmation (AID 434979); conditions: Fluo-4 calcium flux, at 10 µM, serotonin added at its EC20 dose
Active and inactive are the calls of the source.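 Rule for the calls: active = signal rise over 3 SD above mean of control wells given weak agonist, in both repeats and first screen; inactive = the rest.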
Outcomes: active, inactive

Compound	System under test	Label
Cc1cc(C(=O)CN2C(=O)C(=O)N(CC(C)C)C2=O)c(C)n1-c1ccccc1F	TRPC4 (mouse), co-expressed with 5HT1a in HEK293	active
COc1cc(C2(c3ccc(O)c(OC)c3)C(=O)Nc3c(C)cc(Br)cc32)ccc1O	TRPC4 (mouse), co-expressed with 5HT1a in HEK293	active
N#CC1=C(N)C(C#N)(C#N)C(c2cccnc2)C2CC(c3ccccc3)CC=C12 (stereo not given)	TRPC4 (mouse), co-expressed with 5HT1a in HEK293	active
CCCC(=O)Nc1c(-c2ccccc2)c(=O)c(C)nn1-c1ccc(Cl)cc1	TRPC4 (mouse), co-expressed with 5HT1a in HEK293	inactive
CN(C)S(=O)(=O)N1CCC(CCCC2CCN(S(=O)(=O)N(C)C)CC2)CC1	TRPC4 (mouse), co-expressed with 5HT1a in HEK293	active

---

test: nonspecific potentiation of DAMGO calcium response – cell-based, HEK293 mu-opioid receptor line, counter-screen for TRPC4 allosteric potentiator project, confirmation (AID 449724); conditions: HEK293 mu-opioid receptor cells, Fluo-4 calcium flux, at 10 µM, compound added before EC20 DAMGO stimulus; hits give high values;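 note: HEK293 cells carrying mu-opioid receptor only with no TRPC4 channel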
Calls of active or inactive are those of the source.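 The calls were made as follows: active = calcium signal rise more than 3 SD above the low-dose agonist control mean, in both duplicate plates and the primary screen; inactive = the rest.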

Compound	activation
CN(C)c1ccc(-c2sc(Nc3ccccc3)n[n+]2-c2ccc(F)cc2)cc1	inactive
COc1ccc(N=C2SCC(=O)N2Cc2ccccc2)cc1	inactive
CCCCNCC1C(Oc2ccc(Cl)cc2)C(=O)N1c1ccccc1C (configuration not stated)	inactive
O=C(COC(=O)C1CC1)Nc1nc(-c2ccc(F)c(F)c2)cs1	inactive
Cc1nn(-c2ccccc2)c2[nH]c(C(F)(F)F)cc(=O)c12	inactive
Cc1ccc(N2CCN(C(=O)c3ccccc3F)CC2)c(C)c1	inactive
Cc1ccc(N(C(=O)c2snc(C(N)=O)c2N)C(C(=O)NCC2CCCO2)c2ccc(C)o2)c(C)c1 (configuration not stated)	inactive
COc1ccc(C(Nc2ccccn2)c2c(NC(=O)c3ccco3)sc(C)c2C)cc1OC (configuration not stated)	inactive
Cc1cccc(/C=N/NC(=O)c2cc(Br)ccc2O)n1	inactive
O=C(CCN1CCN(Cc2ccccc2)CC1)Nc1cccc(Br)c1	inactive
COc1ccc(NC(C)=O)cc1NC(C)C(=O)Nc1cc(C(F)(F)F)ccc1N1CCOCC1 (configuration not stated)	inactive
CCOC(=O)c1ccc(NC(=S)N2CCSC2c2ccc(Cl)cc2)cc1 (configuration not stated)	inactive
N=c1c(C(=O)NCC2CCCO2)cc2c(=O)n3ccccc3nc2n1Cc1ccc(Cl)cc1 (configuration not stated)	inactive
O=C(NC1CCN(Cc2ccccc2)CC1)C12CC3CC(CC(C3)C1)C2	inactive
Cc1ccc(NC(=O)CN2CCc3ccccc3C2)cc1S(=O)(=O)N1CCOCC1	inactive
Cn1c(=O)c2c(nc(CN3CCc4ccccc4C3)n2Cc2ccccc2)n(C)c1=O	inactive
CC1CCN(C(C)C(=O)Nc2ccccc2-c2ccccc2)CC1 (configuration not stated)	inactive
O=[N+]([O-])c1cc(C(F)(F)F)ccc1N1CCCNCC1	inactive
O=C1CC(NS(=O)(=O)c2cccs2)CN1c1ccccc1 (configuration not stated)	inactive
CCCCN(Cc1ccccc1)C(=O)C1CCN(Cc2sccc2C)CC1	inactive
COc1ccc(C(=O)N2CCN(c3c(C)cccc3C)CC2)cc1OC	inactive
CCOC(=O)C1=C(C)NC(=O)CC1c1cc2c(cc1[N+](=O)[O-])OCO2 (configuration not stated)	inactive

---

test system: TRPC4 (mouse), co-expressed with 5HT1a in HEK293; test: enhancement of serotonin-evoked TRPC4 response – cell-based, second counter screen, HEK293 TRPC4/5HT1a, Fluo-4, counter-screen for TRPC4 potentiator project, confirmation (AID 434979); details: Fluo-4 calcium flux, at 10 µM, serotonin added at its EC20 dose
Activity calls are given as the source filed them.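 Rule for the calls: active = signal rise over 3 SD above mean of control wells given weak agonist, in both repeats and first screen; inactive = the rest.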
Outcomes: active, inactive

Compound	Label
O=C1CC2(CCN(S(=O)(=O)c3ccccc3)CC2)Oc2ccccc21	active
O=c1[nH]ncc(N2CCN(Cc3ccccc3)CC2)c1Cl	inactive
Cc1cc(-c2ccc(C)c(S(=O)(=O)N3CCN(c4ccccn4)CC3)c2)on1	active
O=C(COc1ccc(F)cc1)c1c(O)cc(O)cc1O	inactive
COc1ccc(C(CNC(=O)CSc2ccccc2C)N(C)C)cc1 (stereo unspecified)	inactive
O=S(=O)(NCCSc1nnc(-c2ccco2)n1-c1ccccc1)c1ccccc1	inactive

---

target: Short transient receptor potential channel 4 (Mus musculus); assay: calcium entry via TRPC4 opening agents – cell-based, HEK293 TRPC4/mu-opioid, Fluo-4 calcium, dose response (AID 434937); details: HEK293 TRPC4 cells, Fluo-4 calcium fluorescence ratio; series mostly up to 20 µM
Measured potencies and affinities stand elsewhere. Active and inactive are the calls of the source.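 Rule for the calls: active = primary screen activator hit with a dose response curve and TRPC4 channel activation at any tested dose; inactive = no activation, no dose response, or not a primary hit.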

Molecule	System under test	outcome
Fc1ccc2c(c1)C(c1ccncc1)=NNC(c1ccc(Cl)cc1)=N2	Short transient receptor potential channel 4 (Mus musculus)	inactive
COc1cccc(OCCOCCNCCO)c1	Short transient receptor potential channel 4 (Mus musculus)	inactive
Cc1cc(C)nc(/N=C(\N)N(Cc2ccccc2)Cc2ccccc2)n1	Short transient receptor potential channel 4 (Mus musculus)	inactive
O=[N+]([O-])c1ccc(O)c(C2=NNC(c3ccccc3F)C2)c1 (stereo not given)	Short transient receptor potential channel 4 (Mus musculus)	inactive
CCCn1c(NCc2cc(OC)ccc2OC)nc2ccccc21	Short transient receptor potential channel 4 (Mus musculus)	inactive
O=C(C1=C[C@H](c2ccc(C(F)(F)F)cc2)C[C@H](OCCCCO)O1)N1CCN(Cc2ccccc2)CC1	Short transient receptor potential channel 4 (Mus musculus)	inactive
CCOc1ccccc1N(CC)C(=O)c1nn(C)c2c1CSc1ccccc1-2	Short transient receptor potential channel 4 (Mus musculus)	inactive
C=CCn1c(SCCN2CCCCC2)nc2c1c(=O)[nH]c(=O)n2C	Short transient receptor potential channel 4 (Mus musculus)	inactive
CCOC(=O)c1c(C)oc2ccc(O)c(CN3CCCCC3)c12	Short transient receptor potential channel 4 (Mus musculus)	inactive
Clc1cccc(C[n+]2cc(-c3ccccc3)n3c2CCC3)c1	Short transient receptor potential channel 4 (Mus musculus)	inactive
Cc1ccc(-c2cc(C(=O)NCCCN3CCCC3)c3ccccc3n2)cc1C	Short transient receptor potential channel 4 (Mus musculus)	inactive
C/C(CC(=O)N(C(C)C)C(C)C)=N\NC(=O)COc1ccc(Cl)cc1Cl	Short transient receptor potential channel 4 (Mus musculus)	inactive
CC1CCN(CCCCOc2ccc([N+](=O)[O-])cc2)CC1	Short transient receptor potential channel 4 (Mus musculus)	inactive
O=C(OCC(=O)N1CCOCC1)c1cccc(S(=O)(=O)N2CCCc3ccccc32)c1	Short transient receptor potential channel 4 (Mus musculus)	inactive
CSc1ccc(/C=N\NC(=O)CC(=O)NC(C)C)cc1	Short transient receptor potential channel 4 (Mus musculus)	inactive
CC(C)Oc1ccc(CCC(=O)NNC(=S)NCc2ccccc2)cc1	Short transient receptor potential channel 4 (Mus musculus)	inactive
CCCCc1nnc(NC(=O)C2CCN(c3ncnc4sc(C)c(C)c34)CC2)s1	Short transient receptor potential channel 4 (Mus musculus)	inactive
C=CCn1c(SCC(=O)c2ccc(NS(=O)(=O)c3ccccc3)cc2)nnc1-c1cccs1	Short transient receptor potential channel 4 (Mus musculus)	inactive
CC1=C(C(=O)NCCN2CCN(C)CC2)C2(CCC(C)CC2)OC1=O (stereo not given)	Short transient receptor potential channel 4 (Mus musculus)	inactive
CCCCCCc1cc2cc(-c3nnc(-c4cc(OC)c(OC)c(OC)c4)o3)c(=O)oc2cc1O	Short transient receptor potential channel 4 (Mus musculus)	inactive
CCCN(C(=O)COC(=O)C12CCC(=O)N1c1ccccc1S2)c1c(N)n(Cc2ccccc2)c(=O)[nH]c1=O (stereo not given)	Short transient receptor potential channel 4 (Mus musculus)	inactive
CC(C)(C)NCc1ccccc1OCc1cccs1	Short transient receptor potential channel 4 (Mus musculus)	inactive
C=C(C)Cn1c(SCC)nc2ccccc2c1=O	Short transient receptor potential channel 4 (Mus musculus)	inactive
O=C(CSc1nc(=O)n(CCN2CCOCC2)c2c1CCC2)Nc1ccc(OC(F)(F)F)cc1	Short transient receptor potential channel 4 (Mus musculus)	inactive
NC(=O)c1nsc(C(=O)N(Cc2ccco2)C(C(=O)NCc2ccccc2)c2ccc(O)cc2)c1N (stereo not given)	Short transient receptor potential channel 4 (Mus musculus)	inactive
CC1Cc2ccccc2N1C(=O)CSc1nc2c(c(=O)n(C)c(=O)n2C)n1Cc1ccc(F)cc1 (stereo not given)	Short transient receptor potential channel 4 (Mus musculus)	inactive
COC1=C(C)C(O)=C(C(=O)/C=C/c2ccccc2)C(=O)C1(C)C	Short transient receptor potential channel 4 (Mus musculus)	inactive
Cc1ccc(NC(=O)c2cccs2)cc1	Short transient receptor potential channel 4 (Mus musculus)	inactive
Cc1cc(NC(=O)CCN2CCN(Cc3ccccc3)CC2)ccc1Br	Short transient receptor potential channel 4 (Mus musculus)	inactive
CCN(C(=O)c1cc2c(s1)-c1ccccc1OC2)c1cc(OC)ccc1OC	Short transient receptor potential channel 4 (Mus musculus)	inactive
CC12CN3CC(C)(CN(C1)C3c1ccc(Cl)cc1Cl)C2O (stereo not given)	Short transient receptor potential channel 4 (Mus musculus)	inactive
COc1cc(C(F)(F)F)nc2c(Br)c(C(C)(C)C)nn12	Short transient receptor potential channel 4 (Mus musculus)	inactive
c1ccc(-c2nc(NCc3ccco3)c3ccccc3n2)nc1	Short transient receptor potential channel 4 (Mus musculus)	inactive
CCN1CCN(c2ccc(S(=O)(=O)N3CCCCC3)cc2NC(=O)COc2cc(C)ccc2Cl)CC1	Short transient receptor potential channel 4 (Mus musculus)	inactive
CNC(=S)N1CCN(C(c2ccccc2)c2ccccc2)CC1	Short transient receptor potential channel 4 (Mus musculus)	inactive
Cc1ccc(S(=O)(=O)c2cnc(-c3ccccc3)nc2N2CCN(C)CC2)cc1	Short transient receptor potential channel 4 (Mus musculus)	inactive
CC(=O)Cn1ncc(N2CCOCC2)cc1=O	Short transient receptor potential channel 4 (Mus musculus)	inactive
OCCNc1nc2ccccc2n1CCN1CCCCC1	Short transient receptor potential channel 4 (Mus musculus)	inactive
CNC(=O)COc1ccc2oc3c(c2c1)CCCC3	Short transient receptor potential channel 4 (Mus musculus)	inactive
CCCCCCCCCCCCOC(=O)C[N+](C)(C)C	Short transient receptor potential channel 4 (Mus musculus)	inactive
C/C(N)=C(/C#N)C(=O)COC(=O)C1CCC(C(C)(C)C)CC1 (stereo not given)	Short transient receptor potential channel 4 (Mus musculus)	inactive
CN(Cc1ccco1)C(=O)Cn1ncc2c([nH]c3ccccc32)c1=O	Short transient receptor potential channel 4 (Mus musculus)	inactive
CCCCCc1ccc(OCCCC[n+]2ccccc2)c(CCCCC)c1	Short transient receptor potential channel 4 (Mus musculus)	inactive
COc1ccc(/C=N/Nc2nc3ccccc3s2)cc1O	Short transient receptor potential channel 4 (Mus musculus)	inactive
CCN(CC)c1ccc(/C=N/NC(=O)CNC(=O)c2ccccn2)cc1	Short transient receptor potential channel 4 (Mus musculus)	inactive
